From: patent US12624038B2

Catalogue of Target Degradation (Western Blot) JAK2 values
molecular target: JAK2 (Homo sapiens, UniProt O60674, I682F); construct: endogenous in cells; host or cells: MHH-CALL-4; experiment: Target degradation (Western Blot) in MHH-CALL-4 cells, JAK2; assay type: cell-based; conditions: 100 nM PROTAC at 24 h
Sequence (O60674 whole entry I682F): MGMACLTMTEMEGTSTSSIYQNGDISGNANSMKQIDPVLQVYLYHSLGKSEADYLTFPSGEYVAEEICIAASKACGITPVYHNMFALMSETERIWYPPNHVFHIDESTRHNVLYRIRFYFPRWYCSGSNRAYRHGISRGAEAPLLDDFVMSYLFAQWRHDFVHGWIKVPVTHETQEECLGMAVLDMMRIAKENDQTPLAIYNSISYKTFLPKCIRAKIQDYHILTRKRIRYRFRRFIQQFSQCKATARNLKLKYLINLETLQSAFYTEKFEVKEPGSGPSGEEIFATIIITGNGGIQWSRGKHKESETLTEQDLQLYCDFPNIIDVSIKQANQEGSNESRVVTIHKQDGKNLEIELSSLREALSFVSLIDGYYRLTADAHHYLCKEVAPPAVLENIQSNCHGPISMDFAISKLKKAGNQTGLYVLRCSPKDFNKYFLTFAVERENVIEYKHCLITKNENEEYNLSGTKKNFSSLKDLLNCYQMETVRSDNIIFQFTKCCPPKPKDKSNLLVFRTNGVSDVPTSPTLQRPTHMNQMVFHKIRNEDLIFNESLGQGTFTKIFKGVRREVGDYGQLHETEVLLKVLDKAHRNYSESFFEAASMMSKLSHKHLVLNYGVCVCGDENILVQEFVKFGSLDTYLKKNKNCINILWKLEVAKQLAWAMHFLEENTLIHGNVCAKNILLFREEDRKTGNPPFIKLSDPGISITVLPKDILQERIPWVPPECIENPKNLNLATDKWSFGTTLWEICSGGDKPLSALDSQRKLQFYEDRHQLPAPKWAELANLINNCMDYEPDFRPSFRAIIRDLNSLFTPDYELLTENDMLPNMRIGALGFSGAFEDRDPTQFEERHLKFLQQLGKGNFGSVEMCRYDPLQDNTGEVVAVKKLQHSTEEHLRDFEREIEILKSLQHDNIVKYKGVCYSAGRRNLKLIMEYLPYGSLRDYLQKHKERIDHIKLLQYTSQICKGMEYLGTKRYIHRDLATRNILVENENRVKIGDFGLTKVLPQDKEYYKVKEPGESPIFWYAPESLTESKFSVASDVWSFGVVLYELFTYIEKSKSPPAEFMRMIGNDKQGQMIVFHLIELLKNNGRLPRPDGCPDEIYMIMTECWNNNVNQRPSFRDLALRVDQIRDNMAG

Challenge: Target Degradation (Western Blot) JAK2 lookup needed for CCS(=O)(=O)N1CC(CC#N)(n2cc(-c3nc(Nc4ccc(C(=O)NCCCCNc5ccc6c(c5)C(=O)N(C5CCC(=O)NC5=O)C6=O)cc4)nc4[nH]ccc34)cn2)C1 (stereo not shown) , thanks.
Response given: 1 (1 = None (<20% degradation at 24 h))

With those in mind, consider the next compound.
Challenge: Consider the compound CCS(=O)(=O)N1CC(CC#N)(n2cc(-c3nc(Nc4ccc(C(=O)NCCCNC(=O)COc5cccc6c5C(=O)N(C5CCC(=O)NC5=O)C6=O)cc4)nc4[nH]ccc34)cn2)C1 (stereo not shown) and give its measured Target Degradation (Western Blot) JAK2.
Response given: 1 (1 = None (<20% degradation at 24 h))

---

Each entry below carries its reported Kd.
molecular target: JAK1 (Homo sapiens, UniProt P23458); experiment: KdELECT Kd measurement (KINOMEscan platform), JAK1; type: binding; set-up: purchased Eurofins DiscoveRx; settings: read-out: Kd to JAK family kinases, JAK1
Sequence (P23458 whole entry): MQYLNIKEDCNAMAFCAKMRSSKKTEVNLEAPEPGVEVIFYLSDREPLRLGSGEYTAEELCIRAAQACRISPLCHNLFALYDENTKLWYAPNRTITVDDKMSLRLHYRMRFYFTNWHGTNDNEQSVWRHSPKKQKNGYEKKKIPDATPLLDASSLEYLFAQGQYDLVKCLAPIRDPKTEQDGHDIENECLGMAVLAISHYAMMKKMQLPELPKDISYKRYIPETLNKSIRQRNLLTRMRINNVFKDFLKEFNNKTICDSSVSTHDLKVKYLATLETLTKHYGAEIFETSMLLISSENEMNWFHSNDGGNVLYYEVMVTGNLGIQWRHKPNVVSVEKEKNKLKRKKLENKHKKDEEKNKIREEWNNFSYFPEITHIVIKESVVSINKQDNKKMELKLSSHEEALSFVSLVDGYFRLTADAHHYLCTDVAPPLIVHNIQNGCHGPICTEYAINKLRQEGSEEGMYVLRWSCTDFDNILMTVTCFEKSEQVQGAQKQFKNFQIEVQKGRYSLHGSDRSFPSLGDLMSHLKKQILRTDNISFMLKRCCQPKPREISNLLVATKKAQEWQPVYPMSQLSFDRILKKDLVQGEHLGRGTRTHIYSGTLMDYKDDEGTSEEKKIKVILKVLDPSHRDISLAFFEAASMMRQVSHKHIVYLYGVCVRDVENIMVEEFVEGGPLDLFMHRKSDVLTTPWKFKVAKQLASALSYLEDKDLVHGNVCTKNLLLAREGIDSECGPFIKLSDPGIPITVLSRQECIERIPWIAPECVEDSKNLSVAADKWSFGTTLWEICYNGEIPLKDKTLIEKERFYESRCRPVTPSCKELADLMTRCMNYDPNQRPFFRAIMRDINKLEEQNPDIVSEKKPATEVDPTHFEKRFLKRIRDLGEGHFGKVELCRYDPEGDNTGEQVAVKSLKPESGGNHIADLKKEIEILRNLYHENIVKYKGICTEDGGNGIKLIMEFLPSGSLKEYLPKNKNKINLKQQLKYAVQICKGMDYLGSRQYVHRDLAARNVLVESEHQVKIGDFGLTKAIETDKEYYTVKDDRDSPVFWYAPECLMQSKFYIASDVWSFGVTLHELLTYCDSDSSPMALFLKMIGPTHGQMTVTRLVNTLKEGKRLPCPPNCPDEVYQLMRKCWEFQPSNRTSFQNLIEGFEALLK
Provide the reading as a plain figure in nM.

Some solved cases for reference:
Challenge: Hi! What's the reported Kd for N#CC[C@H](C1CCCC1)n1cc(-c2nc(Nc3ccc(C(=O)NCCCCNc4cccc5c4C(=O)N(C4CCC(=O)NC4=O)C5=O)cc3)nc3[nH]ccc23)cn1 (stereo partly drawn) on JAK1 (Homo sapiens, UniProt P23458)?
Response given: 5.4

Challenge: What do we get for CCCn1cc(-c2nc(Nc3ccc(C(=O)NCCCCNc4cccc5c4C(=O)N(C4CCC(=O)NC4=O)C5=O)cc3)nc3[nH]ccc23)cn1 (stereo not drawn) ?
Response given: 9.3

Proceed to the following item.
Challenge: Form: Entry = CCS(=O)(=O)N1CC(CC#N)(n2cc(-c3nc(Nc4ccc(C(=O)NCCCCNc5cccc6c5C(=O)N(C5CCC(=O)NC5=O)C6=O)cc4)nc4[nH]ccc34)cn2)C1 (stereo not drawn) | System = JAK1 (Homo sapiens, UniProt P23458) | Kd = ____
Response given: 2.4

---

target: IKZF1 (Homo sapiens, UniProt Q13422+Q96SW2); construct: endogenous in cells; host or cells: MHH-CALL-4; test: Target degradation (Western Blot) in MHH-CALL-4 cells, IKZF1; type: cell-based; settings: 100 nM PROTAC at 24 h
Sequence (Q13422 whole entry): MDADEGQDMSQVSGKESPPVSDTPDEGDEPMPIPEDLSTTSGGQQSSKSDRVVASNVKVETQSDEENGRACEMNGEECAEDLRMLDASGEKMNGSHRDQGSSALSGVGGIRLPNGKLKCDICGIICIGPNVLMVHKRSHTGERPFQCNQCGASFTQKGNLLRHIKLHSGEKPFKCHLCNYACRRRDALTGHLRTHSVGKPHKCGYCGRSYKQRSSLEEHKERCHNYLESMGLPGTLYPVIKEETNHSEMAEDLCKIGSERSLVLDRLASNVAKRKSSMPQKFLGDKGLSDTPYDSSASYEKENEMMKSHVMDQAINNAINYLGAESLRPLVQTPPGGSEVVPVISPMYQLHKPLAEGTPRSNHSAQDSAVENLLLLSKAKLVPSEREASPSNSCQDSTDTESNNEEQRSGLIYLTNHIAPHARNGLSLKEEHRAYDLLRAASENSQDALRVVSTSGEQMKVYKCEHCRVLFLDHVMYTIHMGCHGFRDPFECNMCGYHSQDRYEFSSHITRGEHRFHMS
Sequence (Q96SW2 whole entry): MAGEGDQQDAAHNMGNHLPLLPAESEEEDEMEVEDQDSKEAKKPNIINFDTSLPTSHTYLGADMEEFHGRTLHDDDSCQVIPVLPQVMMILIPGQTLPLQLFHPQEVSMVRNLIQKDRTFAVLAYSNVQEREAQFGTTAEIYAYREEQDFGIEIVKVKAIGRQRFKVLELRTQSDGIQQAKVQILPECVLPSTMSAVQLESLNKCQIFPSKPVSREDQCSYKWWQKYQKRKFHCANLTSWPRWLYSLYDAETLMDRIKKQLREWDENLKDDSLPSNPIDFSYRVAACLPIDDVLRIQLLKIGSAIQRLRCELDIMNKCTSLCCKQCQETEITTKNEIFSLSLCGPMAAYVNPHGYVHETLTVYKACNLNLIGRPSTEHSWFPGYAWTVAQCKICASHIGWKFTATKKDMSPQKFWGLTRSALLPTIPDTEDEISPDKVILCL
Sequence (Q16531 whole entry partner): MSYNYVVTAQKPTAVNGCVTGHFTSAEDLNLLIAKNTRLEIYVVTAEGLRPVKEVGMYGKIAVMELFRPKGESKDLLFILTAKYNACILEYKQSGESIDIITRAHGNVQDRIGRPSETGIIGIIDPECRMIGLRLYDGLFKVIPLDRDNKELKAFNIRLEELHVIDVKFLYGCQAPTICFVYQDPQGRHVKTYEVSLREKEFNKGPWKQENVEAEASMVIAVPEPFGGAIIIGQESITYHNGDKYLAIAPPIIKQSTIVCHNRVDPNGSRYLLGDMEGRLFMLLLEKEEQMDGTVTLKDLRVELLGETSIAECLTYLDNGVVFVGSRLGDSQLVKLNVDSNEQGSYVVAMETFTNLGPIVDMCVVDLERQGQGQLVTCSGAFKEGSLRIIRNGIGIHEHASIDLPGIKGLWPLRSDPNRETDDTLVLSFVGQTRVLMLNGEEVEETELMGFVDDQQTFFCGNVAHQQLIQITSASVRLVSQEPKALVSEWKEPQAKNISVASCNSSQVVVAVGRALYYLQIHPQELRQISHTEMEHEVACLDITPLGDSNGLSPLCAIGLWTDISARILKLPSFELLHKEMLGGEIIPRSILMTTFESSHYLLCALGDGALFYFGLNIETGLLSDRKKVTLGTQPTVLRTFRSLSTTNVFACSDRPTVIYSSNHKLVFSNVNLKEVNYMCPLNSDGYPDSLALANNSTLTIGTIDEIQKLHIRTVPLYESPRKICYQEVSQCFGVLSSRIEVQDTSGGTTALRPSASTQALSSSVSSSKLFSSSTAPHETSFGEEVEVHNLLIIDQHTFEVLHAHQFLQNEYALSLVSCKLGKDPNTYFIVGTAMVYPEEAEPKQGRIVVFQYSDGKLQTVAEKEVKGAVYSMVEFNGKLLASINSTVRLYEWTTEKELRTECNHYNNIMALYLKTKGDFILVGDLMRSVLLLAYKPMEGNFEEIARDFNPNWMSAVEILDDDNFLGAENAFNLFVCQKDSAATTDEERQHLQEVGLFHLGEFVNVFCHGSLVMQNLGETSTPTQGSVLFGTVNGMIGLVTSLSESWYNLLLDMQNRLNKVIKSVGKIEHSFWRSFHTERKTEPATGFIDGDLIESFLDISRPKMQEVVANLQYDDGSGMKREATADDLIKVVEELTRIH
measure: Target Degradation (Western Blot) IKZF1

Examples with their reported Target Degradation (Western Blot) IKZF1 follow.
Challenge: Requested read-out: Target Degradation (Western Blot) IKZF1. Entry: CCS(=O)(=O)N1CC(CC#N)(n2cc(-c3nc(Nc4ccc(C(=O)NCCCCNc5ccc6c(c5)C(=O)N(C5CCC(=O)NC5=O)C6=O)cc4)nc4[nH]ccc34)cn2)C1 (stereo not drawn)
Response given: 1 (1 = None (<20% degradation at 24 h))

Challenge: Repeat for the following compound: CCS(=O)(=O)N1CC(CC#N)(n2cc(-c3nc(Nc4ccc(C(=O)NCCCN5CCN(c6ccc7c(c6)C(=O)N(C6CCC(=O)NC6=O)C7=O)CC5)cc4)nc4[nH]ccc34)cn2)C1 (stereo not drawn)
Response given: 1 (1 = None (<20% degradation at 24 h))

Others:
Challenge: What measured Target Degradation (Western Blot) IKZF1 goes with CCS(=O)(=O)N1CC(CC#N)(n2cc(-c3nc(Nc4ccc(C(=O)NCCCNC(=O)COc5cccc6c5C(=O)N(C5CCC(=O)NC5=O)C6=O)cc4)nc4[nH]ccc34)cn2)C1 (stereo not drawn) ?
Response given: 1 (1 = None (<20% degradation at 24 h))

---

assay: In vivo pharmacokinetic (PK) study in NSG mice; design: species or system mouse; conditions: female, NSG, mouse, plasma, ip, 30 mg/kg, NSG mice, single dose i.p. 30 mg/kg, per mouse; read-out: Cmax
measure: Cmax (ng/mL)
Give just the numeric value; ng/mL need not be written.

Challenge: // returns reported Cmax for input CCCn1cc(-c2nc(Nc3ccc(C(=O)NCCCCNc4cccc5c4C(=O)N(C4CCC(=O)NC4=O)C5=O)cc3)nc3[nH]ccc23)cn1 (stereo not shown)
Response given: 115

---

system: hCD34+ cells; test: Cytotoxicity assay in normal hCD34+ cells; assay type: cell-based; conditions: Homo sapiens
In this section, each of the molecules is paired with its reported EC50.
Quick note: give the figure in nM, leave out the unit.

Challenge: I would be grateful if you could share the reported EC50 for CCCn1cc(-c2nc(Nc3ccc(C(=O)NCCCCNc4cccc5c4C(=O)N(C4CCC(=O)NC4=O)C5=O)cc3)nc3[nH]ccc23)cn1 (stereo not drawn) [Compound 7] .
Response given: 0.94

Challenge: Same question, CCS(=O)(=O)N1CC(CC#N)(n2cc(-c3nc(Nc4ccc(C(=O)NCCCCNc5cccc6c5C(=O)N(C5CCC(=O)NC5=O)C6=O)cc4)nc4[nH]ccc34)cn2)C1 (stereo not drawn) [Compound 6] this time
Response given: 19.2

Now examine the next entry.
Challenge: Item under review: N#CC[C@H](C1CCCC1)n1cc(-c2nc(Nc3ccc(C(=O)NCCCCNc4cccc5c4C(=O)N(C4CCC(=O)NC4=O)C5=O)cc3)nc3[nH]ccc23)cn1 (stereo partly drawn) [Compound 5] . Reported EC50?
Response given: 8.36

---

Entries annotated with measured EC50
test system: MHH-CALL-4-CRBN-KD; test: Cytotoxicity assay in CRBN knockdown MHH-CALL-4 cells; format: cell-based, human; conditions: Homo sapiens, MHHCALL4; CRBN knockdown cells

Challenge: State the recorded EC50 for this entry: N#CC[C@H](C1CCCC1)n1cc(-c2nc(Nc3ccc(C(=O)NCCCCNc4cccc5c4C(=O)N(C4CCC(=O)NC4=O)C5=O)cc3)nc3[nH]ccc23)cn1 (some centres unmarked)
Response given: > 102 nM

Challenge: What do you get for CCCn1cc(-c2nc(Nc3ccc(C(=O)NCCCCNc4cccc5c4C(=O)N(C4CCC(=O)NC4=O)C5=O)cc3)nc3[nH]ccc23)cn1 (centres unmarked) ?
Response given: > 102 nM

---

assay: In vivo pharmacokinetic (PK) study in NSG mice; set-up: species or system mouse; settings: female, NSG, mouse, plasma, ip, 30 mg/kg, NSG mice, single dose i.p. 30 mg/kg, per mouse
measure: AUC(0-t) (ng·h/mL)
Just the number please, in ng·h/mL, no unit attached.

Challenge: Quick one: AUC(0-t) for CCCn1cc(-c2nc(Nc3ccc(C(=O)NCCCCNc4cccc5c4C(=O)N(C4CCC(=O)NC4=O)C5=O)cc3)nc3[nH]ccc23)cn1 (stereo not shown) ?
Response given: 1350

---

The following molecules have recorded pKd on TYK2 (Homo sapiens, UniProt P29597).
Scale: negative log10 of molar concentration, which is what pKd denotes.

Challenge: Requested field: pKd. Item: N#CC[C@H](C1CCCC1)n1cc(-c2nc(Nc3ccc(C(=O)NCCCCNc4cccc5c4C(=O)N(C4CCC(=O)NC4=O)C5=O)cc3)nc3[nH]ccc23)cn1 (stereo partly shown)
Response given: 8.77

Others:
Challenge: Could you tell me which pKd is on file for CCS(=O)(=O)N1CC(CC#N)(n2cc(-c3ncnc4[nH]ccc34)cn2)C1 [Baricitinib, baricitinib, reference compound] ?
Response given: 8.89

Challenge: Next molecule up: CCS(=O)(=O)N1CC(CC#N)(n2cc(-c3nc(Nc4ccc(C(=O)NCCCCNc5cccc6c5C(=O)N(C5CCC(=O)NC5=O)C6=O)cc4)nc4[nH]ccc34)cn2)C1 (stereo not shown)
Response given: 9.60

Challenge: Same question, CCCn1cc(-c2nc(Nc3ccc(C(=O)NCCCCNc4cccc5c4C(=O)N(C4CCC(=O)NC4=O)C5=O)cc3)nc3[nH]ccc23)cn1 (stereo not shown) this time
Response given: 9.27
